Entries and their pIC50
- target.or.test.system: beta-catenin/TCF4 engagement (Homo sapiens, UniProt P35222)
- Construct: expressed in transfected cells; host or cells: HEK293
- Sequence (P35222 whole entry): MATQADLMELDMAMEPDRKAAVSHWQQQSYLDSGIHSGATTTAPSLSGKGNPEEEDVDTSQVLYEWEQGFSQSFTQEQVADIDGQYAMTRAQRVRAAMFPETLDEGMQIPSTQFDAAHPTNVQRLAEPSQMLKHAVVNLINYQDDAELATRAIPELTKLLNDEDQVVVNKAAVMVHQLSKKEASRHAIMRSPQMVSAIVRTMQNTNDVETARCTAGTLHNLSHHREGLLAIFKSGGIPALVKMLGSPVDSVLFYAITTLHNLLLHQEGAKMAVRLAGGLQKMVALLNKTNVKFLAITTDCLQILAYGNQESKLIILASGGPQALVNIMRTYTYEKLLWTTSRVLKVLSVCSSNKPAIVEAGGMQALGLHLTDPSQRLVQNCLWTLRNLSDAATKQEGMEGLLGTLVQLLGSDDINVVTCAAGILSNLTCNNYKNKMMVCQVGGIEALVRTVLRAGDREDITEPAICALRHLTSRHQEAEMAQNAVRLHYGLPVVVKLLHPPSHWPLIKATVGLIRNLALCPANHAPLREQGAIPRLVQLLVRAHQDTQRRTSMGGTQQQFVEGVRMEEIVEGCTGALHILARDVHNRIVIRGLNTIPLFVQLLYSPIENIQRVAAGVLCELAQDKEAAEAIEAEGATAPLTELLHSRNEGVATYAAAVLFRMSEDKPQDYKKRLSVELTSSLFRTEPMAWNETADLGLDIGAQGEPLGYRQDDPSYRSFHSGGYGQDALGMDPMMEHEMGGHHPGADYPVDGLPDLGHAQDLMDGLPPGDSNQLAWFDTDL
- experimental.details: Nano-BRET target engagement assay (B-cat-Halo & TCF4-Luc in HEK293 cells)
- Format: cell-based
- cond: absolute IC50; read-out: NanoBRET Abs IC50
Convention used: pIC50 is expressed as -log10 of the molar concentration.

Please review the entries below; each comes with its answer.
{"molecule": "CC(=O)N1CCC[C@]12CC=CCCCC1(CCCC=CCCCOC(=O)N3CC[C@@](C(=O)N[C@@H](Cc4ccsc4)C(=O)N[C@@H](Cc4csc5ccccc45)C(=O)N[C@@H](CCC(N)=O)C(=O)O)(C3)NC(=O)[C@H](CC(N)=O)NC(=O)[C@H](Cc3ccccc3)NC(=O)[C@H](C)NC(=O)[C@H](C)NC(=O)[C@H](CN(CC(=O)O)CC(F)(F)F)NC(=O)[C@H](CC(=O)O)NC1=O)NC(=O)[C@H](CC(C)(C)C)NC(=O)[C@H](CC(=O)O)NC2=O (some centres unmarked)", "target.or.test.system": "beta-catenin/TCF4 engagement (Homo sapiens, UniProt P35222)", "pIC50": 4.78}
{"molecule": "CC(=O)N1CCC[C@]12CC=CCCCC1(CCCC=CCCCCCC[C@@](C)(C(=O)N[C@@H](Cc3ccccc3)C(=O)N[C@@H](Cc3csc4ccccc34)C(=O)N[C@@H](CCC(N)=O)C(N)=O)NC(=O)[C@H](CC(N)=O)NC(=O)[C@H](Cc3ccccc3)NC(=O)[C@H](C)NC(=O)[C@H](C)NC(=O)[C@H](CCC(=O)O)NC(=O)[C@H](CC(=O)O)NC1=O)NC(=O)[C@H](CC(C)C)NC(=O)[C@H](CC(=O)O)NC2=O (some centres unmarked) [I-577]", "target.or.test.system": "beta-catenin/TCF4 engagement (Homo sapiens, UniProt P35222)", "pIC50": 4.98}
{"molecule": "CC(=O)N1CCC[C@]12CC=CCCCC1(CCCC=CCCCOC(=O)N3CC[C@@](C(=O)N[C@@H](Cc4ccsc4)C(=O)N[C@@H](Cc4csc5ccccc45)C(=O)N[C@@H](CCC(N)=O)C(N)=O)(C3)NC(=O)[C@H](CC(C)C)NC(=O)[C@H](Cc3ccccc3)NC(=O)[C@H](C)NC(=O)[C@H](C)NC(=O)[C@H](CC(=O)O)NC(=O)[C@H](CC(N)=O)NC1=O)NC(=O)[C@H](CC(C)(C)C)NC(=O)[C@H](CC(=O)O)NC2=O (some centres unmarked)", "target.or.test.system": "beta-catenin/TCF4 engagement (Homo sapiens, UniProt P35222)", "pIC50": 5.12}

# next molecule below
pIC50 for beta-catenin/TCF4 engagement (Homo sapiens, UniProt P35222) with input CC(=O)N1CCC[C@]12CC=CCCCC1(CCCC=CCCCOC(=O)N3CC[C@@](C(=O)N[C@@H](Cc4ccsc4)C(=O)N[C@@H](Cc4csc5ccccc45)C(=O)N[C@H](CO)[C@@H](C)O)(C3)NC(=O)[C@H](Cc3ccccc3C(F)(F)F)NC(=O)[C@H](Cc3ccccc3)NC(=O)[C@H](C)NC(=O)[C@H](C)NC(=O)[C@H](CC(=O)O)NC(=O)[C@H](CC(=O)O)NC1=O)NC(=O)[C@H](CC(C)(C)C)NC(=O)[C@H](CC(=O)O)NC2=O (some centres unmarked) equals 5.00

---

Parameter: IC50. Scope: all listed entries.
- target.or.test.system: beta-catenin/TCF4 engagement (Homo sapiens)
- Construct: expressed in transfected cells; host or cells: HEK293
- experimental.details: Nano-BRET target engagement assay (B-cat-Halo & TCF4-Luc in HEK293 cells)
- Assay type: cell-based
- cond: absolute IC50; read-out: NanoBRET Abs IC50
Respond with the bare value in µM.

Solved cases below.
{"compound": "CC(=O)N1CCC[C@]12CC=CCCCC1(CCCC=CCCCOC(=O)N3CC[C@@](C(=O)N[C@@H](Cc4ccccc4C(F)(F)F)C(=O)N[C@@H](Cc4csc5ccccc45)C(=O)N[C@@H](CCC(N)=O)C(N)=O)(C3)NC(=O)[C@H](CC(N)=O)NC(=O)[C@H](Cc3ccccc3)NC(=O)[C@H](C)NC(=O)[C@H](C)NC(=O)[C@H](CN(CC(=O)O)CC(F)(F)F)NC(=O)[C@H](CC(=O)O)NC1=O)NC(=O)[C@H](CC(C)(C)C)NC(=O)[C@H](CC(=O)O)NC2=O (stereo partly drawn)", "target.or.test.system": "beta-catenin/TCF4 engagement (Homo sapiens)", "readout.units": "µM", "IC50": 8.2}
{"compound": "CC(=O)N1CCC[C@]12CC=CCCCC1(CCCC=CCCCCCC[C@@](C)(C(=O)N[C@@H](Cc3ccccc3)C(=O)N[C@@H](Cc3csc4ccccc34)C(=O)N[C@@H](CC(N)=O)C(N)=O)NC(=O)[C@H](CC(N)=O)NC(=O)[C@H](Cc3ccccc3)NC(=O)[C@H](C)NC(=O)[C@H](C)NC(=O)[C@H](CCC(=O)O)NC(=O)[C@H](CC(=O)O)NC1=O)NC(=O)[C@H](CC(C)C)NC(=O)[C@H](CC(=O)O)NC2=O (stereo partly drawn) [I-752]", "target.or.test.system": "beta-catenin/TCF4 engagement (Homo sapiens)", "readout.units": "µM", "IC50": 9.9}
{"compound": "CC(=O)N1CCC[C@]12CC=CCCCC1(CCCC=CCCCOC(=O)N3CC[C@@](C(=O)N[C@@H](Cc4ccsc4)C(=O)N[C@@H](Cc4csc5ccccc45)C(=O)N[C@@H](CC(N)=O)C(=O)N[C@@H](C)C(=O)N[C@@H](CC(C)C)C(=O)N[C@@H](C)C(=O)N[C@@H](CC(C)C)C(=O)N[C@@H](C)C(N)=O)(C3)NC(=O)[C@H](CC(C)C)NC(=O)[C@H](Cc3ccccc3)NC(=O)[C@H](C)NC(=O)[C@H](C)NC(=O)[C@H](Cc3cccc(C(=O)O)c3)NC(=O)[C@H](CC(=O)O)NC1=O)NC(=O)[C@H](CC(C)(C)C)NC(=O)[C@H](CC(=O)O)NC2=O (stereo partly drawn) [I-2282]", "target.or.test.system": "beta-catenin/TCF4 engagement (Homo sapiens)", "readout.units": "µM", "IC50": 3.7}

For CC(=O)N1CCC[C@]12CC=CCCCC1(CCCC=CCCCCCC[C@@](C)(C(=O)N[C@@H](Cc3ccsc3)C(=O)N[C@@H](Cc3csc4ccccc34)C(=O)N[C@@H](CCC(N)=O)C(N)=O)NC(=O)[C@H](CC(N)=O)NC(=O)[C@H](Cc3ccccc3)NC(=O)[C@H](C)NC(=O)[C@H](C)NC(=O)[C@H](CC(=O)O)NC(=O)[C@H](CC(=O)O)NC1=O)NC(=O)[C@H](CC(C)(C)C)NC(=O)[C@H](CC(=O)O)NC2=O (stereo partly drawn) [I-679] the compound record lists IC50 as 17.1

Notebook: CC(=O)N1CCC[C@]12CC=CCCCC1(CCCC=CCCCOC(=O)N3CC[C@@](C(=O)N[C@@H](Cc4ccsc4)C(=O)N[C@@H](Cc4csc5ccccc45)C(=O)N[C@@H](CCC(N)=O)C(N)=O)(C3)NC(=O)[C@H](CC(C)C)NC(=O)[C@H](Cc3ccccc3)NC(=O)[C@H](C)NC(=O)[C@H](C)NC(=O)[C@H](CN(CC(=O)O)C(=O)Cc3ccc(C(F)(F)F)cc3)NC(=O)[C@H](CC(=O)O)NC1=O)NC(=O)[C@H](CC(C)(C)C)NC(=O)[C@H](CC(=O)O)NC2=O (stereo partly drawn) , IC50 read as 15.3

Note to self: IC50 recorded for CC(=O)N1CCC[C@]12CC=CCCCC1(CCCC=CCCCOC(=O)N3CC[C@@](C(=O)N[C@@H](Cc4ccsc4)C(=O)N[C@@H](Cc4csc5ccccc45)C(=O)N[C@@H](CCC(N)=O)C(N)=O)(C3)NC(=O)[C@H](CC(C)C)NC(=O)[C@H](Cc3ccccc3)NC(=O)[C@H](C)NC(=O)[C@H](C)NC(=O)[C@H](CN(CC(=O)O)CC(F)(F)F)NC(=O)[C@H](CC(=O)O)NC1=O)NC(=O)[C@H](CC(C)(C)C)NC(=O)[C@H](CC(=O)O)NC2=O (stereo partly drawn) [I-849] was 2.6

IC50 for CC(=O)N1CCC[C@]12CCCCCCC1(CCCCCCCCOC(=O)N3CC[C@@](C(=O)N[C@@H](Cc4ccsc4)C(=O)N[C@@H](Cc4csc5ccccc45)C(=O)N[C@@H](CCC(N)=O)C(N)=O)(C3)NC(=O)[C@H](CC(C)C)NC(=O)[C@H](Cc3ccccc3)NC(=O)[C@H](C)NC(=O)[C@H](C)NC(=O)[C@H](CC(=O)O)NC(=O)[C@H](CC(=O)O)NC1=O)NC(=O)[C@H](CC(C)(C)C)NC(=O)[C@H](CC(=O)O)NC2=O (stereo partly drawn) is 14
